The measured values listed here are drawn from patent US12351557B2.

# ASSAY SUMMARY: pKa estimate
# Format: physicochemical
# CONDITION CONTEXT: free base; read-out: pKa 1 (estimate)
REPORTED ENDPOINT: pKa

> print(dat)
                            molecule.smiles  endpoint.value
1  Cc1ccccc1-c1cc(N2CCN(C)CC2)ncc1C(=O)N(C)Cc1cc(C(F)(F)F)cc(C(F)(F)F)c1            7.54
